Entries and their IC50 values follow.
- TARGET_UNDER_TEST: p38 MAPKα isoform (MAPK14) (Homo sapiens)
- Construct: purchased Life Technologies
- RUN_DESCRIPTION: p38 MAPKα enzyme inhibition (Z-LYTE FRET)
- Format: biochemical
- CONDITION_INFO: Table 2B, unit inferred; read-out: p38 MAPKα (Enzyme Profile)
Please state the figure in µM; there is no need to write the unit.

>>> recorded_measurement("CCCc1cncc(Nc2cc(COc3ccc(NC(=O)Nc4cc(C(C)(C)C)nn4-c4ccc(C)cc4)c4ccccc34)ccn2)n1")
0.031
>>> recorded_measurement("CCc1nc(Nc2cc(COc3ccc(NC(=O)Nc4cc(C(C)(C)C)nn4-c4ccc(C)cc4)c4ccccc34)ccn2)cnc1C")
0.019
>>> recorded_measurement("Cc1ccc(-n2nc(C(C)(C)C)cc2NC(=O)Nc2ccc(OCc3ccnc(Nc4cnc(C(=O)N5C[C@@H](O)[C@H](O)C5)cn4)c3)c3ccccc23)cc1")
0.0047
>>> recorded_measurement("Cc1ccc(-n2nc(C(C)(C)C)cc2NC(=O)Nc2ccc(OCc3ccnc(Nc4cnc(C(=O)NCCO)cn4)c3)c3ccccc23)cc1")
0.017
>>> recorded_measurement("COc1cc(-n2nc(C(C)(C)C)cc2NC(=O)Nc2ccc(OCc3ccnc(Nc4cnc(C)c(C)n4)c3)c3ccccc23)ccc1C")
0.05

Next up:
**Q:** Can you look up the measured IC50 of `CN(C)c1ccc(-n2nc(C(C)(C)C)cc2NC(=O)Nc2ccc(OCc3ccnc(Nc4cnccn4)c3)c3ccccc23)cn1` for me?
**A:** 0.021

----------
Entries and their IC50 values follow.
- TARGET_UNDER_TEST: p38 MAPKα isoform (MAPK14) (Homo sapiens)
- Construct: purchased Life Technologies
- RUN_DESCRIPTION: p38 MAPKα enzyme inhibition (Z-LYTE FRET)
- Type: biochemical
- CONDITION_INFO: Table 2B, unit inferred; read-out: p38 MAPKα (Enzyme Profile)
Please state the figure in nM; there is no need to write the unit.

Worked examples follow.
>>> recorded_measurement("Cc1ccc(-n2nc(C(C)(C)C)cc2NC(=O)Nc2ccc(OCc3ccnc(Nc4cncc(N)n4)c3)c3ccccc23)cc1 [Example 106]")
3.4
>>> recorded_measurement("CCc1cncc(Nc2cc(COc3ccc(NC(=O)Nc4cc(C(C)(C)C)nn4-c4cc(F)cc(OC)c4)c4ccccc34)ccn2)n1 [Example 211]")
60

Next up:
**Q:** Can you look up the measured IC50 of CO[C@H]1CCCN(C(=O)c2cnc(Nc3cc(COc4ccc(NC(=O)Nc5cc(C(C)(C)C)nn5-c5ccc(C)cc5)c5ccccc45)ccn3)cn2)C1 [Example 238] for me?
**A:** 19

----------
Entries and their IC50 values follow.
- TARGET_UNDER_TEST: p38MAPKγ (MAPK12) (Homo sapiens, UniProt P53778)
- Construct: purchased Life Technologies
- Sequence (P53778 1-367): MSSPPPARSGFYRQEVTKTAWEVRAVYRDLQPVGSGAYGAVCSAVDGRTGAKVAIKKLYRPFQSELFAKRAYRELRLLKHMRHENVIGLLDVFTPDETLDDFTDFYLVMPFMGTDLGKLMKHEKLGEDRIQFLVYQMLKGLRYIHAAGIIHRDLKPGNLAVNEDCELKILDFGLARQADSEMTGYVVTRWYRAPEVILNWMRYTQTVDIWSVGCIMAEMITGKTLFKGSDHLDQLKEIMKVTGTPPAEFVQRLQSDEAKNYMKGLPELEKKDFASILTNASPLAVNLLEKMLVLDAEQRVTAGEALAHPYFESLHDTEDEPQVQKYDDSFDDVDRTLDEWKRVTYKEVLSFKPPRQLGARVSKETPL
- RUN_DESCRIPTION: p38 MAPKγ enzyme inhibition (Z-LYTE FRET)
- Format: biochemical
- CONDITION_INFO: Table 2B, unit inferred; read-out: p38 MAPKγ (Enzyme Profile)
Please state the figure in nM; there is no need to write the unit.

>>> recorded_measurement("CCc1cncc(Nc2cc(COc3ccc(NC(=O)Nc4cc(C(C)(C)C)nn4-c4cccc(C)c4)c4ccccc34)ccn2)n1")
438
>>> recorded_measurement("Cc1ccc(-n2nc(C(C)(C)C)cc2NC(=O)Nc2ccc(OCc3ccnc(Nc4cnc(C(=O)NCCN5CCC(O)CC5)cn4)c3)c3ccccc23)cc1")
67
>>> recorded_measurement("COc1ccc(-n2nc(C(C)(C)C)cc2NC(=O)Nc2ccc(OCc3ccnc(Nc4cncc(OC)n4)c3)c3ccccc23)cc1")
15500

**Q:** Can you look up the measured IC50 of `Cc1ccc(-n2nc(C(C)(C)C)cc2NC(=O)Nc2ccc(OCc3ccnc(Nc4cncc(N(C)C)n4)c3)c3ccccc23)s1` for me?
**A:** 125

**Q:** Can you look up the measured IC50 of `Cc1ccc(-n2nc(C(C)(C)C)cc2NC(=O)Nc2ccc(OCc3ccnc(Nc4cnc(C(=O)NCCCN5CCN(C)CC5)cn4)c3)c3ccccc23)cc1` for me?
**A:** 31

**Q:** Can you look up the measured IC50 of `COc1cccc(-n2nc(C(C)(C)C)cc2NC(=O)Nc2ccc(OCc3ccnc(Nc4cnccn4)c3)c3ccccc23)c1` for me?
**A:** 78

**Q:** Can you look up the measured IC50 of `COCc1ccc(-n2nc(C(C)(C)C)cc2NC(=O)Nc2ccc(OCc3ccnc(Nc4cnccn4)c3)c3ccccc23)cc1` for me?
**A:** 39

----------
- TARGET_UNDER_TEST: p38 MAPKα isoform (MAPK14) (Homo sapiens, UniProt Q16539)
- Construct: purchased Life Technologies
- Sequence (Q16539 whole entry, canonical isoform): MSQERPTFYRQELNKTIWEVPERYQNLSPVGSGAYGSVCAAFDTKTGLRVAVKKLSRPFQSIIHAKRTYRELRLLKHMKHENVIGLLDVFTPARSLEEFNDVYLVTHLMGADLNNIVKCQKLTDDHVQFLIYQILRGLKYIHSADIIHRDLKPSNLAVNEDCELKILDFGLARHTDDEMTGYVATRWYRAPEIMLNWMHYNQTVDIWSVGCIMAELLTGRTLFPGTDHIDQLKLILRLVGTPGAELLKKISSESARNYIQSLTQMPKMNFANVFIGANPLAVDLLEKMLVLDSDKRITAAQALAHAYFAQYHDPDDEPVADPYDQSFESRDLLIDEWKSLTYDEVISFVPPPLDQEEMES
- RUN_DESCRIPTION: p38 MAPKα enzyme inhibition (Z-LYTE FRET)
- Type: biochemical
- CONDITION_INFO: Table 2B, unit inferred; read-out: p38 MAPKα (Enzyme Profile)
- Procedure: The enzyme inhibitory activities of compounds disclosed herein were determined by FRET using synthetic peptides labelled with both donor and acceptor fluorophores (Z-LYTE, Life Technologies, Paisley, UK). The inhibitory activities of compounds of the invention against the p38 MAPKα isoform (MAPK14: Life Technologies), were evaluated indirectly by determining the level of activation/phosphorylation of the target peptide of the p38 MAPKα down-stream molecule, MAPKAP-K2. […]
PROPERTY_LABEL: IC50 (nM)
Please state the figure in nM; there is no need to write the unit.

Worked examples follow.
>>> recorded_measurement("Cc1ccc(-n2nc(C(C)(C)C)cc2NC(=O)Nc2ccc(OCc3ccnc(Nc4cnc(C(=O)N5C[C@H](O)[C@@H](O)C5)cn4)c3)c3ccccc23)cc1 [Example 247]")
7
>>> recorded_measurement("COc1cccc(-n2nc(C(C)(C)C)cc2NC(=O)Nc2ccc(OCc3ccnc(Nc4cnc(C(=O)N5CCCC5)cn4)c3)c3ccccc23)c1 [Example 216]")
15
>>> recorded_measurement("Cc1ccc(-n2nc(C(C)(C)C)cc2NC(=O)Nc2ccc(OCc3ccnc(Nc4cnc(C(=O)N5CCCC5)cn4)c3)c3ccccc23)cc1F [Example 235]")
65

**Q:** Can you look up the measured IC50 of CCc1cccc(-n2nc(C(C)(C)C)cc2NC(=O)Nc2ccc(OCc3ccnc(Nc4cncc(CC)n4)c3)c3ccccc23)c1 [Example 234] for me?
**A:** 64

**Q:** Can you look up the measured IC50 of COCc1cnc(Nc2cc(COc3ccc(NC(=O)Nc4cc(C(C)(C)C)nn4-c4cccc(F)c4)c4ccccc34)ccn2)cn1 [Example 203] for me?
**A:** 17

**Q:** Can you look up the measured IC50 of CCOc1ccc(-n2nc(C(C)(C)C)cc2NC(=O)Nc2ccc(OCc3ccnc(Nc4cnccn4)c3)c3ccccc23)cc1C [Example 197] for me?
**A:** 37

----------
- TARGET_UNDER_TEST: p38 MAPKα isoform (MAPK14) (Homo sapiens)
- Construct: purchased Life Technologies
- RUN_DESCRIPTION: p38 MAPKα enzyme inhibition (Z-LYTE FRET)
- Assay type: biochemical
- CONDITION_INFO: Table 2B, unit inferred; read-out: p38 MAPKα (Enzyme Profile)
Entries and their IC50 values follow.
Please state the figure in nM; there is no need to write the unit.

Worked examples follow.
>>> recorded_measurement("CCc1cncc(Nc2cc(COc3ccc(NC(=O)Nc4cc(C(C)(C)C)nn4-c4ccc(COC)cc4)c4ccccc34)ccn2)n1")
28
>>> recorded_measurement("COCCNC(=O)c1cnc(Nc2cc(COc3ccc(NC(=O)Nc4cc(C(C)(C)C)nn4-c4ccc(C)c(C)c4)c4ccccc34)ccn2)cn1")
21
>>> recorded_measurement("Cc1ccc(-n2nc(C(C)(C)C)cc2NC(=O)Nc2ccc(OCc3ccnc(Nc4cnc(C(=O)N5CC[C@H](F)C5)cn4)c3)c3ccccc23)cc1")
19
>>> recorded_measurement("CCCc1cncc(Nc2cc(COc3ccc(NC(=O)Nc4cc(C(C)(C)C)nn4-c4ccc(C)c(F)c4)c4ccccc34)ccn2)n1")
207

Next up:
**Q:** Can you look up the measured IC50 of `Cc1ccc(-n2nc(C(C)(C)C)cc2NC(=O)Nc2ccc(OCc3ccnc(Nc4cnc(C(=O)N5CCNC(=O)CC5)cn4)c3)c3ccccc23)cc1` for me?
**A:** 3.4

The measured values listed here are drawn from patent US11142515B2.
